Just for reference, ChEMBL document CHEMBL1128397 is where these values come from.

target_system: Bifunctional dihydrofolate reductase-thymidylate synthase (Toxoplasma gondii, UniProt Q07422)
Sequence (Q07422 whole entry): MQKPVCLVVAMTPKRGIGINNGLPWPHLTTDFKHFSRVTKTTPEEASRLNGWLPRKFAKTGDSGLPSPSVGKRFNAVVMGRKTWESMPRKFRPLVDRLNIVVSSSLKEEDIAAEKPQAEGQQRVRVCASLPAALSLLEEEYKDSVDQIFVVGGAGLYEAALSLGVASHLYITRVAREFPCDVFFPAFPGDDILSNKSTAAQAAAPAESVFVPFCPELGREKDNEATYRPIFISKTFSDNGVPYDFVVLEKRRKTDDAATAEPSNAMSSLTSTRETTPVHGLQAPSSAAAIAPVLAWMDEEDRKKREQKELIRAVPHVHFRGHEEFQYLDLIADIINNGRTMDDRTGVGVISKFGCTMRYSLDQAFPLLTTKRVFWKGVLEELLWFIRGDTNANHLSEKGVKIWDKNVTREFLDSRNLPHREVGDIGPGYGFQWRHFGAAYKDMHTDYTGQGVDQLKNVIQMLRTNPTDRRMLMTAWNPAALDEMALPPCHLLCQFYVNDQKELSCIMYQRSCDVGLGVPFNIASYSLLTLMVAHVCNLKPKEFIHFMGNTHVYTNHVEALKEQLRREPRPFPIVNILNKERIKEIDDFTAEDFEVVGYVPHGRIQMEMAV
Under this convention, fulfilled denotes IC50 strictly below 2 µM and not fulfilled denotes IC50 at or above 2 µM.

q: State whether 2 µM exceeds IC50 recorded for Nc1nc(N)c2c(CNc3ccc(C(=O)NC(CCC(=O)O)C(=O)O)cc3)c[nH]c2n1 (stereo not given) .
a: fulfilled

q: Answer whether the compound COc1ccc(OC)c(NCc2c[nH]c3nc(N)nc(N)c23)c1 has IC50 strictly less than 2 µM
a: fulfilled

q: # TODO verify IC50 < 2 µM strictly for this compound: COc1cc(NCc2c[nH]c3nc(N)nc(N)c23)cc(OC)c1OC
a: not fulfilled

q: Find out if reported IC50 for COc1ccc(NCc2c[nH]c3nc(N)nc(N)c23)cc1 is less than 2 µM
a: not fulfilled

Shifting focus to the compound that follows.
q: Find out if reported IC50 for Nc1nc(N)c2c(CNc3cccc4ccccc34)c[nH]c2n1 is less than 2 µM
a: fulfilled

###

# Selectivity ratio per record follows
method: Ratio of IC50 against rat liver DHFR and Pneumocystis carinii DHFR (IC50rl/IC50pc)
Lab note: jot the number down without any unit.

q: Query: Selectivity ratio; subject: COc1ccc(NCc2c[nH]c3nc(N)nc(N)c23)cc1
a: 0.23

Continuing:
q: Query (compound): COc1ccc(OC)c(NCc2c[nH]c3nc(N)nc(N)c23)c1 ; field requested: Selectivity ratio
a: 3.4

q: Which Selectivity ratio is listed for Nc1nc(N)c2c(CNc3cccc4ccccc34)c[nH]c2n1 ?
a: 0.2

###

Quick list: Selectivity ratio per entry.
method: Ratio of the IC50 against rat liver DHFR and Toxoplasma gondii DHFR (IC50rl/IC50tg)

The cases that follow already have their Selectivity ratio on record.
q: What measured Selectivity ratio goes with COc1cc(NCc2c[nH]c3nc(N)nc(N)c23)cc(OC)c1OC ?
a: 7

q: What measured Selectivity ratio goes with Nc1nc(N)c2c(CNc3ccccc3)c[nH]c2n1 ?
a: > 65

q: I would be grateful if you could share the reported Selectivity ratio for COc1ccc(OC)c(NCc2c[nH]c3nc(N)nc(N)c23)c1 .
a: 92

q: If you can, please state the reported Selectivity ratio value of Nc1nc(N)c2c(CNc3cccc4ccccc34)c[nH]c2n1 .
a: 53.9

Pending compound:
q: Sample COc1ccc(NCc2c[nH]c3nc(N)nc(N)c23)cc1 — what was its Selectivity ratio?
a: 10.5

###

System: CCRF-CEM
method: Compound was evaluated for the growth inhibition of R2, a CCRF-CEM subline resistant to MTX as a result of deffective uptake.
Assay type: functional, cell-based
test_context: Homo sapiens
test_readout: EC50 (µM)
Could you give me the number in µM? Just the number is fine.

q: // lookup EC50 | system=CCRF-CEM | key= Nc1nc(N)c2c(CNc3ccc(C(=O)NC(CCC(=O)O)C(=O)O)cc3)c[nH]c2n1 (stereo unspecified)
a: 1.65

###

target_system: Dihydrofolate reductase (Rattus norvegicus)
Sequence (Q920D2 whole entry): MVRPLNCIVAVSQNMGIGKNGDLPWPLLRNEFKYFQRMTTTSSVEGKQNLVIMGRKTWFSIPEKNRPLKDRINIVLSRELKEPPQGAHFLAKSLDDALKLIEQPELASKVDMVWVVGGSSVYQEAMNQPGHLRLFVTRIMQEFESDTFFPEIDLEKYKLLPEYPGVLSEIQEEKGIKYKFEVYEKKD
// reported pIC50 per item
pIC50 here is simply -log10 of the concentration when that concentration is written in mol/L.

q: Bench note: what pIC50 did COc1ccc(OC)c(NCc2c[nH]c3nc(N)nc(N)c23)c1 show?
a: 3.81

q: Return reported pIC50; argument: COc1cc(NCc2c[nH]c3nc(N)nc(N)c23)cc(OC)c1OC
a: 4.25

***
q: Could you tell me which pIC50 is on file for COc1ccc(NCc2c[nH]c3nc(N)nc(N)c23)cc1 ?
a: 4.20
